Molecular target: T1, human E-selectin, cell-surface expressed (human, UniProt P16581 22-610)
T1 construct: also called CHO-human E-selectin cells; human CHO-E
T1 sequence: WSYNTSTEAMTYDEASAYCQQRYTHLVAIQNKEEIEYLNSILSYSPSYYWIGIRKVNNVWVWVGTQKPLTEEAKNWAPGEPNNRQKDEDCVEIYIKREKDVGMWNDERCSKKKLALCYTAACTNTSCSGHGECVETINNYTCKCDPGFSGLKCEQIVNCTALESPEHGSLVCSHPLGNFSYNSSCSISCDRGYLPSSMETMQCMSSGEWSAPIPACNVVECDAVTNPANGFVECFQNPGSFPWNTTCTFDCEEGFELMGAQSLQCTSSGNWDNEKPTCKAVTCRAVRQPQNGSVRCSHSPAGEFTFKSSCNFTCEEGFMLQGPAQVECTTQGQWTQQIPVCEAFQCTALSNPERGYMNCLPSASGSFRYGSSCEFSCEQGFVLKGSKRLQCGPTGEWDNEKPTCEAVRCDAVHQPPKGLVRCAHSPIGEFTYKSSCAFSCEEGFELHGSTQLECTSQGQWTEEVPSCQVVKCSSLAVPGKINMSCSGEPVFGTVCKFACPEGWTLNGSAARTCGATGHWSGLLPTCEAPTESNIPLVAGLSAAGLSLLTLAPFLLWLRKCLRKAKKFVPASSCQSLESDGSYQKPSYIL
Assay: flow cytometry, CHO cells
Description: Cells were maintained in growth medium at 37° C., 5% CO₂ and 95% air in a humidified incubator. Methotrexate or Zeocin were removed from the medium prior to culture for experiments. […] After incubation, antibodies were removed and the cells were washed three times by centrifugation at 300×g for 1 minute at 4° C. and resuspended in cold CHO buffer. […] A Becton Dickinson LSRFortessa instrument using 640 nanometer laser line was used to acquire cell fluorescence data. […]
Catalogue of EC50 readings, one per entry.
The reply should contain only the number, in nM.

The following binders have reported results that may help.
EC50 recorded for this binder, anti-E-selectin antibody 0170 chimera (antibody, human IgG1, kappa, V domains shown, rat VH/VL on effector-null human IgG1 and human kappa) VH: EVQLQQSGAELGKPGTSVKLSCKVSGYSIRSTYMHWVNQRPGKGLEWVGRIDPANGNTIYAERFKNKATLTADTSSNTAYMQLSQLKSDDTAIYFCAVEILGIFDYWGQGVMVTVSS VL: DIQMTQSPSFLSASVGDRVTINCKASQNIDKYLDWYQQKLGEAPKLLMYNTNSLHTGIPSRFSGSGSGTDFTLTISSLQPEDVATYFCLQHNSGYTFGAGTKLELKR , is 1.99

Field EC50 (entry anti-E-selectin antibody 0158 chimera (antibody, human IgG1, kappa, V domains shown, rat VH/VL on effector-null human IgG1 and human kappa) VH: QVQLKESGPGLVQPSETLSLTCTVSGFSISTYNVHWLRQPPGKGLEWMGMMWSGGSPDYNSALKSRLSISRDTSKNQVFLKMNSLQSEDTTTYYCARWGGGFDYWGQGVMVTVSS VL: DIVLTQSPTTLSVTPGETVSLSCRASHSIGTNLHWYQQKTNESPRLLIKFTSQSISGIPSRFSASGSGTDFTLNINNVEFDDVSSYFCQQTQSWPLTFGSGTKLEIKR ) reads 3.75

Please examine the following record next.
Consider anti-E-selectin antibody 0159 chimera (antibody, human IgG1, kappa, V domains shown, rat VH/VL on effector-null human IgG1 and human kappa) VH: EVQLQQSGAELGKPGTSVKLSCKVSGYNIRSTYMHWVSQRPGKGLEWIGRIDPANGNTIYAEKFKRKATLTADTSSNTAYMQLSQLKSDDRAIYFCAMEVRVSFEYWGQGVMVTVSS VL: DIQMTQSPSFLSASVGDRVTINCKASQNINKYLDWYQQKLGEGPKLLIYYTNNLHTGIPSRFSGSGSGTDFTLTISSLQPEDVATYFCLQHDSGYTFGAGTKLELKR . Its measured EC50 is 2.44

Measured values drawn from patent US20240076386A1 for this set.
